# assay target: ZFP SBS#734 (synthetic)
# Sequence (chain, as listed by the source): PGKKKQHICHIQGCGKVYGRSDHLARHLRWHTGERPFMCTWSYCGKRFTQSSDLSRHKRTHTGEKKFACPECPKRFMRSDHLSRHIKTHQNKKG
# experiment summary: EMSA
# condition: tags: MBP fusion
reported endpoint: Kd (nM)

                                     binder  test_value
0  GGGGCTGGGT (dsDNA) DNA 1: GGGGCTGGGT DNA 2: ACCCAGCCCC        0.25

The reported numbers originate from patent US20030068675.
